- target system: T1, FcRL4, overexpressed on 3T3 cells (UniProt Q96PJ5 20-515, limits assumed)
- T1 construct: whole, on cells
- T1 sequence (looked up): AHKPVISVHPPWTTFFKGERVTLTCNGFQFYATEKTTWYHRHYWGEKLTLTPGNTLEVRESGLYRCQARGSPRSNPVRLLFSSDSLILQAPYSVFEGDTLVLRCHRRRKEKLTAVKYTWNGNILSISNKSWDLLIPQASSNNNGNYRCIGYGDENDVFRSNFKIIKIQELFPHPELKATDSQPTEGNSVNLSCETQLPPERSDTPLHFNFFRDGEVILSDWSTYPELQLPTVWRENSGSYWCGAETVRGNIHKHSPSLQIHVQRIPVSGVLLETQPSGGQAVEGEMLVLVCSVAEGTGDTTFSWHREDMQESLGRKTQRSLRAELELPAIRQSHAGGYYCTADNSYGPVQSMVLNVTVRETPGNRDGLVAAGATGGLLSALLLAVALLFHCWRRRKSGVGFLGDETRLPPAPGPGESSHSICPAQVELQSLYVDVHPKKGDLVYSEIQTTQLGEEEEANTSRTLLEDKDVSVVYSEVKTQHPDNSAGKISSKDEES
- protocol description: phage clone on 3T3-FcRL4 cells
measured metric: binding result

ET200-010 (scFv, screened as phage clone; entry is VL-linker-VH-His tag-HA tag) scFv: QSALTQPASVSGSPGQSITISCTGTSSDVGGYNSVSWYQQHPGKAPRLMIYDVSNRPSGVSNRFSGSKSGNTASLTISGLQAEDEADYYCSSYTSSSTPLVFGTGTKVTVLGSRGGGGSGGGGSGGGGSLEMAQVQLVQSGAEVKKPGASVKVSCKASGYTFTSYGISWVRQAPGQGLEWMGWISAYNGNTNYAQKLQGRVTMTTDTSTSTAYMELRSLRSDDTAVYYCARGAVAYHDWGQGTLVTVSSTSGQAGQHHHHHHGAYPYDVPDYAS ... no binding
ET200-003 (scFv, screened as phage clone; entry is VL-linker-VH-His tag-HA tag) scFv: QSVLTQPPSVSVSPGQTASISCSGNKLGTKYVYWYQKRPGQSPVLVMYEDNQRPSGIPERFSGSNSGNTATLTIRGTQTVDEADYYCQAWDSDTFVVFGGGTKVTVLGSRGGGGSGGGGSGGGGSLEMAEVQLVETGGGVVQPGRSLRLSCAASGFTFSSYGMHWVRQAPGKGLEWVAVISHDGSNKYYADSVKGRFTISRDNSKDTLYLQMNSLRGEDTAVYYCARSNQWSGYFSFDYWGQGTLVTVSSTSGQAGQHHHHHHGAYPYDVPDYAS ... no binding
